B1: TPR t1 (parent)
chain: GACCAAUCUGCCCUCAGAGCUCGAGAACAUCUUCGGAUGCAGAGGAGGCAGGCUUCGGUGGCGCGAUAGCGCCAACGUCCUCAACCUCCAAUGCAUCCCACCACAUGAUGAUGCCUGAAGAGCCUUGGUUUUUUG

variants of: B1; assay: polymerase ribozyme fitness, log enrichment relative to wild type (log ratio); higher = more active; in vitro selection for triplet polymerase activity
OBSERVABLE: polymerase ribozyme fitness (log ratio)
# print the numeric value only

Asked: Given the entry G39A C79A C114G A121C , report its measured polymerase ribozyme fitness (log ratio).
Given back: -4.29

Asked: Could you tell me which polymerase ribozyme fitness (log ratio) is on file for A16U C89U ?
Given back: -1.23

Asked: Which polymerase ribozyme fitness (log ratio) is reported for this variant? C13U G45C C73U C123A
Given back: 0.429

Asked: Need polymerase ribozyme fitness (log ratio) of A46C G71C , thanks.
Given back: -1.14

Asked: Any idea what polymerase ribozyme fitness (log ratio) was measured for U112C C123A ?
Given back: -0.0765

Asked: # lookup: polymerase ribozyme fitness (log ratio) of U81A C89U
Given back: -0.112

Asked: Requested field: polymerase ribozyme fitness (log ratio). Item: G60U A105C
Given back: -1.6

Asked: Tell me the measured polymerase ribozyme fitness (log ratio) of G39U G60C , please.
Given back: -0.892

Asked: polymerase ribozyme fitness (log ratio) lookup needed for G71C U81C U129C U130A , thanks.
Given back: -3.37

Asked: Field request: polymerase ribozyme fitness (log ratio) | item: G44U C62A C101G
Given back: -4.35

Asked: Look up polymerase ribozyme fitness (log ratio): A18U A29G C56A C80A
Given back: -6.14

Asked: Which polymerase ribozyme fitness (log ratio) value belongs to G48A C85G ?
Given back: -2.75

Asked: I have this variant here, G71U C89U C101U C123U G128C , and I need its recorded polymerase ribozyme fitness (log ratio).
Given back: -1.14

Asked: Name the recorded polymerase ribozyme fitness (log ratio) for G71A A83G U133G .
Given back: -2.31

Asked: Would you mind telling me what polymerase ribozyme fitness (log ratio) value was observed for U38G C49A C73U C86U U109G U126A ?
Given back: -5.53

Asked: May I ask what polymerase ribozyme fitness (log ratio) has been recorded for C3G C49U U78A C115A ?
Given back: -3.75

Asked: Entry A43G G120U has what polymerase ribozyme fitness (log ratio)?
Given back: -1.47

Asked: Fill blank: measured polymerase ribozyme fitness (log ratio) of the variant C20U G45U is ____.
Given back: -2.33

Asked: Item A6U G42C C73G has what recorded polymerase ribozyme fitness (log ratio)?
Given back: -2.29

Asked: Reported polymerase ribozyme fitness (log ratio), variant C11U G61U C76U A111C : ____
Given back: -5.8

Asked: Return reported polymerase ribozyme fitness (log ratio); argument: G61A
Given back: 0.0725

Asked: Can you share its polymerase ribozyme fitness (log ratio)? I mean this variant: C12U G36C G117U
Given back: -0.382
